TARGET_OR_TEST_SYSTEM: Leucine-rich repeat serine/threonine-protein kinase 2 (Homo sapiens, UniProt Q5S007, G2019S)
Sequence (Q5S007 whole entry G2019S): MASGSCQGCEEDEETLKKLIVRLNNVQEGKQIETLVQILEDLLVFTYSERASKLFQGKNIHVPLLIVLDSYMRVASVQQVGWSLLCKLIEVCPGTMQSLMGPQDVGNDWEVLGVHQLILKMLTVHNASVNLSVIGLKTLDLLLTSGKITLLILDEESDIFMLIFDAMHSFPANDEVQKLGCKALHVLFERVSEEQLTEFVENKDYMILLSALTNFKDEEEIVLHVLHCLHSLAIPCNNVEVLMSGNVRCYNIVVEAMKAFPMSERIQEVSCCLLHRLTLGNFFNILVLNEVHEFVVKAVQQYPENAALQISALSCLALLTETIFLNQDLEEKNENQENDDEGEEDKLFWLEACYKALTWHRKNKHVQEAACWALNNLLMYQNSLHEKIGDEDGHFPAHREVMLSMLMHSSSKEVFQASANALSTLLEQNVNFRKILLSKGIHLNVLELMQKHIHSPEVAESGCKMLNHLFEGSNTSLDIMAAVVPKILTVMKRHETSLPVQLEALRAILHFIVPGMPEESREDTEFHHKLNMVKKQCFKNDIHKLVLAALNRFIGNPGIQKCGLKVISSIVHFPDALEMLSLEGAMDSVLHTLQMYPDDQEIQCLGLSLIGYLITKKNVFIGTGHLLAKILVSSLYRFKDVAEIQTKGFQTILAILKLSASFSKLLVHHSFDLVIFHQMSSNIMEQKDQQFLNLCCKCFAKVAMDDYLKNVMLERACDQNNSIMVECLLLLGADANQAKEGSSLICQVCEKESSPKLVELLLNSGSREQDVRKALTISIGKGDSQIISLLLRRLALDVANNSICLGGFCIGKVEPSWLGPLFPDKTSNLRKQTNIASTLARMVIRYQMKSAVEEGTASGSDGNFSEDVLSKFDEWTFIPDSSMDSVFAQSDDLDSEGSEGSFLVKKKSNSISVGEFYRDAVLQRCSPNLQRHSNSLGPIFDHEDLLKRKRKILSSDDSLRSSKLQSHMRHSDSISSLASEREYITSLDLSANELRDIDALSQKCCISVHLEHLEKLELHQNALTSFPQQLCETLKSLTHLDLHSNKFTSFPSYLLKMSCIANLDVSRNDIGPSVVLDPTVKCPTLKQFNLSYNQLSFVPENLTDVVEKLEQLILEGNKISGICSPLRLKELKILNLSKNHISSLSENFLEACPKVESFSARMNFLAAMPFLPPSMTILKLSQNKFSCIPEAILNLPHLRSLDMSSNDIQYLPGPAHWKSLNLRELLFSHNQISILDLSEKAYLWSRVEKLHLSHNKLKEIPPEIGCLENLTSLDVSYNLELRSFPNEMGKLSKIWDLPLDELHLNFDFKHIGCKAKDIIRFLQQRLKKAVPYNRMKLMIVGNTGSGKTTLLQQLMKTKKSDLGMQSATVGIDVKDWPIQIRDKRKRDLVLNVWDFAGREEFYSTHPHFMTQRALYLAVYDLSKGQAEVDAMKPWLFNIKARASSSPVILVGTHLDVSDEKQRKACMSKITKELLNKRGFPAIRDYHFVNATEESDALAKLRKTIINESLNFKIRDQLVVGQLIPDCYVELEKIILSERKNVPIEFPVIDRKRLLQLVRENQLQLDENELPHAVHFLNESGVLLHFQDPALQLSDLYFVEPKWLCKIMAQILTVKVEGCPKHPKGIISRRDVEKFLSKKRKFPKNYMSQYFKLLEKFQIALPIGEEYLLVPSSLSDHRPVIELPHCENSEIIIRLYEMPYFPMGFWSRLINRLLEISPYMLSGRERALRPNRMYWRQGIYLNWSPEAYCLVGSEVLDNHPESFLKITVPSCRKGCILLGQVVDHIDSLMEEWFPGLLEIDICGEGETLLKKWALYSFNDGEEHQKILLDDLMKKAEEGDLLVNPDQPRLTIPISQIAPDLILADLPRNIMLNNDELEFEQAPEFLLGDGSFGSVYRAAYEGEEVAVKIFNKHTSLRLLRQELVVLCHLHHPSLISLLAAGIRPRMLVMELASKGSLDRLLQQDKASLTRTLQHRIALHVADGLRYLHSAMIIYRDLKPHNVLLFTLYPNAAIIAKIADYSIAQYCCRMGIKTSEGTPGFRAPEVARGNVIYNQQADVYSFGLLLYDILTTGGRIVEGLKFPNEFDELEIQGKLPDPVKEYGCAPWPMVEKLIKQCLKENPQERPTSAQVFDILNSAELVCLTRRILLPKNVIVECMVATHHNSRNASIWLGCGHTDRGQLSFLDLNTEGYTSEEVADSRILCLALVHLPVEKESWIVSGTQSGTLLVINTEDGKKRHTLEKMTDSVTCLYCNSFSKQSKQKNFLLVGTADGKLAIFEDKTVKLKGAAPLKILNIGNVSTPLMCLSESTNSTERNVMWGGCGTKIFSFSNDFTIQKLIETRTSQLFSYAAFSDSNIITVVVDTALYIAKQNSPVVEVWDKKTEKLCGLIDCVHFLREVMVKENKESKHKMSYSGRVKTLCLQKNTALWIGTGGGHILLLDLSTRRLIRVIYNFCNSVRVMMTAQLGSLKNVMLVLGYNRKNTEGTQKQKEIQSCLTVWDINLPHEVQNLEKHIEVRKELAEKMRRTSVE
ASSAY_SUMMARY: Inhibition of LRRK2 G2019S mutant (unknown origin) by TR-FRET assay
MEASURE_NAME: pIC50
# log scale: pIC50 equals minus log10 of the concentration in mol/L

Fill in: pIC50 of FC(F)(F)c1cccc(Sc2ccc3nnc(-c4cscn4)n3n2)c1 is ___ 7.46

Given the molecule FC(F)(F)c1cccc(Sc2ccc3nnc(Cc4cccs4)n3n2)c1 , what is its reported pIC50? 4.71

Entry under review: CC(C)(C)c1cccc(Sc2ccc3nnc(-c4cncs4)n3n2)c1 . Reported pIC50? 7.52

Give its pIC50 value. Item: COC(=O)[C@H](C)Sc1ccc2nnc(-c3cccs3)n2n1 6.67

# get_value(readout='pIC50', item= FC(F)(F)c1cccc(Sc2ccc3nnc(-c4ccn[nH]4)n3n2)c1 ) 7.89

Fill in the blank: the reported pIC50 of FC(F)(F)c1ccccc1Sc1ccc2nnc(-c3ccccc3)n2n1 is ____. 5.61

Can you share its pIC50? I mean this molecule: COc1cccc(Sc2ccc3nnc(-c4cncs4)n3n2)c1 7.59

Given FC(F)(F)Oc1cccc(Sc2ccc3nnc(-c4cncs4)n3n2)c1 , state its recorded pIC50. 7.17

Tell me the measured pIC50 of FC(F)(F)c1cccc(Sc2ccc3nnc(-c4sccc4Br)n3n2)c1 , please. 6.87
